- target_system: ILK (Homo sapiens (Human))
- Sequence (Q13418 whole entry): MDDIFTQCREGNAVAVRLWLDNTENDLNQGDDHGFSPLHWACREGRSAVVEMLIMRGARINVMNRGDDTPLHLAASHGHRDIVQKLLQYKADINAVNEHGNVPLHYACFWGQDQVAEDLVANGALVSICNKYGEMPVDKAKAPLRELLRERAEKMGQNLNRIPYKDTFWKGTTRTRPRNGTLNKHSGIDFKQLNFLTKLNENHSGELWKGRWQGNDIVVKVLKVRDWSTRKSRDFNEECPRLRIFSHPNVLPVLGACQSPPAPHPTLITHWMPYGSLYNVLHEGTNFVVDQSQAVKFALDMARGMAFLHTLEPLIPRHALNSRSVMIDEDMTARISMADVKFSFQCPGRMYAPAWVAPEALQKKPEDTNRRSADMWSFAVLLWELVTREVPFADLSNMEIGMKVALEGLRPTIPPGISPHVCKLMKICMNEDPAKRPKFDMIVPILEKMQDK
- assay_notes: KiNativ assay
- Format: binding
- assay_setup: H929 live cell, read-out: inhibition (10 μM)
# inhibition at 10 µM listing for each entry below
attribute_measured: inhibition at 10 µM (%)

>>> print(df.to_string())
                                   compound   attribute_measured  meas_value
0  COc1cc(NS(=O)(=O)C2CC2)ccc1-c1cnc(N)c(-c2ccc3c(c2)CCNC3=O)c1 [Compound I-50]  inhibition at 10 µM       -18.8
1  Nc1ncc(-c2cccc3ncsc23)cc1-c1ccc2c(c1)CCNC2=O [Compound I-13]  inhibition at 10 µM         1.6
2  Nc1ncc(-c2cccc([N+](=O)[O-])c2F)cc1-c1ccc2c(c1)CCNC2=O [Compound I-9]  inhibition at 10 µM         -19
3  Nc1ncc(-c2ccc(NS(=O)(=O)C3CC3)cc2OC2CCCCC2)cc1-c1ccc2c(c1)CCNC2=O [Compound I-65]  inhibition at 10 µM         -35
4  Nc1ncc(-c2ccc(NS(=O)(=O)C3CC3)cc2F)cc1-c1ccc2c(c1)CCNC2=O [Compound I-51]  inhibition at 10 µM       -31.3
5  CN(C1CC1)S(=O)(=O)c1ccc(-c2cnc(N)c(-c3ccc4c(c3)CCNC4=O)c2)c(F)c1 [Compound I-28]  inhibition at 10 µM        -5.8

---

- target_system: NuaK1 (Homo sapiens (Human), UniProt O60285)
- Sequence (O60285 whole entry): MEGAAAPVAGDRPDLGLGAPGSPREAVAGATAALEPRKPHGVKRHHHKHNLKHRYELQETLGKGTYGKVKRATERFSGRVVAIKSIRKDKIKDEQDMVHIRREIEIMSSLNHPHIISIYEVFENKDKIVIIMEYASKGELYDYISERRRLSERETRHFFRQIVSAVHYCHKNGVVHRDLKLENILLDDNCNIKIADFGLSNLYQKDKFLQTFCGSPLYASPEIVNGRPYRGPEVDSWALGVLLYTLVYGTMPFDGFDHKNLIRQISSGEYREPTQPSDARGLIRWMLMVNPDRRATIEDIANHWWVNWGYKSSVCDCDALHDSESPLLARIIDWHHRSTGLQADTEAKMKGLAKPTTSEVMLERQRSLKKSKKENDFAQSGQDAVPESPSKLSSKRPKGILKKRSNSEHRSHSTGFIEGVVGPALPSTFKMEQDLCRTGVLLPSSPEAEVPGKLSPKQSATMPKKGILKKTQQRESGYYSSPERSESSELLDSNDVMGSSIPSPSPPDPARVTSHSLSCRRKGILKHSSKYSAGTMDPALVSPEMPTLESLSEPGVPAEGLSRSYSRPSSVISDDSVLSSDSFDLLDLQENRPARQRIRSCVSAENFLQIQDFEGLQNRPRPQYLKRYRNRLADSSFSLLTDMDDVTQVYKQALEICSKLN
- assay_notes: KiNativ assay
- Assay type: binding
- assay_setup: H929 live cell
attribute_measured: inhibition (10 μM) (%)

>>> print(df.to_string())
                                   compound  relation_sign  meas_value
0  Nc1ncc(-c2ccc(NS(=O)(=O)C3CC3)cc2OC2CCCCC2)cc1-c1ccc2c(c1)CCNC2=O              =        61.5
1  Nc1ncc(-c2cccc3ncsc23)cc1-c1ccc2c(c1)CCNC2=O              =        83.7
2  COc1cc(NS(=O)(=O)C2CC2)ccc1-c1cnc(N)c(-c2ccc3c(c2)CCNC3=O)c1              =        61.5
3  Nc1ncc(-c2ccc(NS(=O)(=O)C3CC3)cc2F)cc1-c1ccc2c(c1)CCNC2=O              =        68.8
4  CN(C1CC1)S(=O)(=O)c1ccc(-c2cnc(N)c(-c3ccc4c(c3)CCNC4=O)c2)c(F)c1              =        66.7
5  Nc1ncc(-c2cccc([N+](=O)[O-])c2F)cc1-c1ccc2c(c1)CCNC2=O              >          90

---

- target_system: ACK (Homo sapiens (Human))
- Sequence (Q07912 whole entry): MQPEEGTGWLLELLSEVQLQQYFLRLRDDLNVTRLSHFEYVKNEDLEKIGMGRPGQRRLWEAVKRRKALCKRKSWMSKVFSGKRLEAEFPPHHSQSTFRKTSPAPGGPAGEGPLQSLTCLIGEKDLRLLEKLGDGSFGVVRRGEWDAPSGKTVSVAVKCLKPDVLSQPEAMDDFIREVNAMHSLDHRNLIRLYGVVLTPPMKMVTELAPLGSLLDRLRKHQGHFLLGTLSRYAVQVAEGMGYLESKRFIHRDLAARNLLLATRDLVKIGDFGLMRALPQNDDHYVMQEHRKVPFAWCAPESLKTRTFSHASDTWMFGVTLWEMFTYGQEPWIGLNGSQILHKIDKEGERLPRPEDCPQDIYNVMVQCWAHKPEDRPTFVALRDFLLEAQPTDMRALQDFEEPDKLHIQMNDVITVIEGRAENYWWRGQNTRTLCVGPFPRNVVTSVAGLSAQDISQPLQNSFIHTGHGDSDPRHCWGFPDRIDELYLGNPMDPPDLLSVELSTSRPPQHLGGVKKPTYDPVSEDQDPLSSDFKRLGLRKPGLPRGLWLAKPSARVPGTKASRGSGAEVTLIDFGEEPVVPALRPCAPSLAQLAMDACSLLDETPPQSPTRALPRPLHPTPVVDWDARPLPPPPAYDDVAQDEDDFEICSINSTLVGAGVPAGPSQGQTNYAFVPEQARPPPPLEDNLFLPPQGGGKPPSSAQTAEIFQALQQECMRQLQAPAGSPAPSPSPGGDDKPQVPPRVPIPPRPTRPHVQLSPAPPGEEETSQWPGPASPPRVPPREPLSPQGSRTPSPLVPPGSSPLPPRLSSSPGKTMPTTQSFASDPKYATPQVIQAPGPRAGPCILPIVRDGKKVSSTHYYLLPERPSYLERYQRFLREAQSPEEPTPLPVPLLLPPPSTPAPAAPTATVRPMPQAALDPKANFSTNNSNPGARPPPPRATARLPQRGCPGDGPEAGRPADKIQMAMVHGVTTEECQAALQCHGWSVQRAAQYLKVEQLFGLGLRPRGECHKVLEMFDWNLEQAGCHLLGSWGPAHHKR
- assay_notes: KiNativ assay
- Assay type: binding
- assay_setup: H929 live cell, read-out: inhibition (10 μM)
# inhibition at 10 µM >= -20% gives true, anything below gives false

>>> df
                                   compound  assigned_category
0  COc1cc(NS(=O)(=O)C2CC2)ccc1-c1cnc(N)c(-c2ccc3c(c2)CCNC3=O)c1               true
1  CN(C1CC1)S(=O)(=O)c1ccc(-c2cnc(N)c(-c3ccc4c(c3)CCNC4=O)c2)c(F)c1               true
2  Nc1ncc(-c2cccc([N+](=O)[O-])c2F)cc1-c1ccc2c(c1)CCNC2=O               true
3  Nc1ncc(-c2cccc3ncsc23)cc1-c1ccc2c(c1)CCNC2=O               true
4  Nc1ncc(-c2ccc(NS(=O)(=O)C3CC3)cc2OC2CCCCC2)cc1-c1ccc2c(c1)CCNC2=O               true
5  Nc1ncc(-c2ccc(NS(=O)(=O)C3CC3)cc2F)cc1-c1ccc2c(c1)CCNC2=O              false

The reported numbers originate from patent US10710978B2.
